target: Mu-type opioid receptor (Cavia porcellus)
Sequence (P97266 whole entry): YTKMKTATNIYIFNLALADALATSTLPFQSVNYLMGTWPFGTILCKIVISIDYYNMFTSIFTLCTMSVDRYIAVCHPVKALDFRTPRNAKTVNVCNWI
measured-attribute: IC50 (nM)
Give just the numeric value; nM need not be written.

Recorded IC50, per entry:
CC[C@H](C)[C@@H]1NC(=O)[C@H](CCCN=C(N)N)NC(=O)[C@H](CCCN=C(N)N)NC(=O)[C@H](NC(=O)[C@H](Cc2ccccc2)NC(=O)CNC(=O)CNC(=O)[C@@H](N)Cc2ccc(O)cc2)C(C)(C)SSC(C)(C)[C@@H](C(N)=O)NC(=O)[C@@H]2CCCN2C(=O)[C@H](CCCN=C(N)N)NC1=O :: 224
CC[C@H](C)[C@H](NC(=O)[C@H](CCCN=C(N)N)NC(=O)[C@H](CCCN=C(N)N)NC(=O)C(CC(C)C)NC(=O)[C@H](Cc1ccccc1)NC(=O)CNC(=O)CNC(=O)[C@@H](N)Cc1ccc(O)cc1)C(=O)N[C@@H](CCCN=C(N)N)C(=O)N1CCC[C@H]1C(=O)N[C@H](CCCCN)C(N)=O (stereo in doubt) :: 5.2
CC[C@H](C)[C@@H]1NC(=O)[C@H](CCCN=C(N)N)NC(=O)[C@H](CCCN=C(N)N)NC(=O)[C@H](NC(=O)[C@H](Cc2ccccc2)NC(=O)CNC(=O)CNC(=O)[C@@H](N)Cc2ccc(O)cc2)C(C)(C)SSC[C@@H](C(N)=O)NC(=O)[C@@H]2CCCN2C(=O)[C@H](CCCN=C(N)N)NC1=O :: 87.1
CC[C@H](C)[C@@H]1NC(=O)[C@H](CCCN=C(N)N)NC(=O)[C@H](CCCN=C(N)N)NC(=O)[C@@H](NC(=O)[C@H](Cc2ccccc2)NC(=O)CNC(=O)CNC(=O)[C@@H](N)Cc2ccc(O)cc2)CSSC(C)(C)[C@H](C(N)=O)NC(=O)[C@@H]2CCCN2C(=O)[C@H](CCCN=C(N)N)NC1=O :: 17

Let us examine a further case.
Inquiry: Lookup: IC50 / Mu-type opioid receptor (Cavia porcellus) / CC[C@H](C)[C@@H]1NC(=O)[C@H](CCCN=C(N)N)NC(=O)[C@H](CCCN=C(N)N)NC(=O)[C@H](NC(=O)[C@H](Cc2ccccc2)NC(=O)CNC(=O)CNC(=O)[C@@H](N)Cc2ccc(O)cc2)C(C)(C)SSC(C)(C)[C@H](C(N)=O)NC(=O)[C@@H]2CCCN2C(=O)[C@H](CCCN=C(N)N)NC1=O
Reply text: 563
